# Test system: EKVX NSCLC
# method-summary: NCI tumour cell line growth inhibition, 48 h
endpoint-name: TGI

// solved cases for TGI follow
[
  {
    "compound": "CN(C)/C=C1\\CCc2ccc([N+](=O)[O-])cc2C1=O",
    "measured-on": "EKVX NSCLC",
    "result": "> 100 µM"
  },
  {
    "compound": "Oc1ccc(O)c(Cc2ccccc2)c1",
    "measured-on": "EKVX NSCLC",
    "result": "> 100 µM"
  },
  {
    "compound": "CCN(CC)CCNc1ccc2nnn3c4ccc([N+](=O)[O-])cc4c(=O)c1c23",
    "measured-on": "EKVX NSCLC",
    "result": "> 89.7 µM"
  },
  {
    "compound": "CCOC(=O)C(C)c1c(C(=O)c2ccc(C)nc2)c2ccccc2n1C (stereo not given)",
    "measured-on": "EKVX NSCLC",
    "result": "> 100 µM"
  }
]

Q: I am curious: what TGI value has been reported for C=CCN1CCN([C@H](c2ccc(C(=O)N(CC)CC)cc2)c2cccc(OC)c2)CC1 ?
Result: > 25 µM

----------
# Test system: OVCAR-4 ovarian
# method-summary: NCI tumour cell line growth inhibition, 48 h; in the data active = GI50 below about 0.43 µM; inactive = the rest
Please state which outcome applies, choosing from yes (1) (active), no (0) (inactive)

[
  {
    "molecule": "O=C(Nc1ccc(OCc2nnc(-c3ccc(Cl)cc3)o2)c(F)c1)c1ccc(Cl)c(C(F)(F)F)c1",
    "label": "no (0)"
  },
  {
    "molecule": "O=c1c2cc(F)ccc2sc2c(Nc3ccncc3)nc3ccccc3c12",
    "label": "no (0)"
  },
  {
    "molecule": "CS(=O)(=O)O[C@H]1C(=O)N(c2cc3c4ccccc4ccc3c3ccccc23)[C@@H]1c1ccccc1",
    "label": "no (0)"
  },
  {
    "molecule": "CCC(CC)c1nc(Nc2cccc(OC)c2)c2ccccc2n1",
    "label": "no (0)"
  }
]

Q: Write down the call the test reported for this molecule. Item: Nc1nc(N)c(N=Nc2ccccc2)c(-c2ccccc2)n1
Result: no (0)

Q: Write down the call the test reported for this molecule. Item: Nc1nonc1C(=Nc1ccc(F)c(Cl)c1)NO
Result: no (0)

Q: Write down the call the test reported for this molecule. Item: CC1=C2O[C@]3(O)C=C2C(=C(O)C1=O)[C@@H]1O[C@H](CC[C@H](C)/C=C(\C)C[C@@H](C)C[C@@H]3C)[C@H](C)[C@H](O)[C@H]1C
Result: yes (1)

Q: Write down the call the test reported for this molecule. Item: CCOC(=O)N1C/C(=C/c2ccc(Cl)cc2)C(=O)/C(=C/c2ccc(Cl)cc2)C1
Result: no (0)

Q: Write down the call the test reported for this molecule. Item: C=C1C(=O)O[C@H]2[C@H]1CC/C(COC(=O)/C=C/C(=O)NCc1ccc(Cn3c(=O)sn(-c4ccccc4)c3=O)cc1)=C\CC[C@@]1(C)O[C@@H]21
Result: no (0)

Q: Write down the call the test reported for this molecule. Item: C[n+]1c(-c2ccccc2)c2cc(N)ccc2c2ccccc21
Result: no (0)

Q: Write down the call the test reported for this molecule. Item: CCO/C=N/C1=C(C#N)C(c2ccc(OC)cc2)c2sc3c(F)cccc3c2O1 (stereo unspecified)
Result: no (0)

Q: Write down the call the test reported for this molecule. Item: COC(=O)[C@@H](C)C[C@H](Cc1ccc2ccccc2c1)NC(=O)c1csc([C@@H](C[C@H](C(C)C)N(C)C(=O)[C@@H](NC(=O)[C@H]2CCCCN2C)C(C)C)OC(C)=O)n1
Result: yes (1)

Q: Write down the call the test reported for this molecule. Item: Cn1ncc(NC(=O)c2nc(-c3c(F)cccc3F)sc2N)c1N1CC[C@@H](N)[C@H](F)CC1
Result: no (0)

Q: Write down the call the test reported for this molecule. Item: COc1cc2c(cc1I)-c1c(cc(OC)c(OC)c1OC)CC[C@@H]2NC(C)=O
Result: no (0)

Q: Write down the call the test reported for this molecule. Item: COc1cc2ccnc(C=O)c2cc1OC
Result: no (0)

Q: Write down the call the test reported for this molecule. Item: CN(C)c1cc[n+](/C(NS(=O)(=O)c2cc(C(=O)Nc3ccc(Cl)cc3)c(Cl)cc2[S-])=C(\C#N)C(=O)c2ccccc2)cc1
Result: no (0)

----------
# System: DU-145 prostate
# method-summary: NCI tumour cell line growth inhibition, 48 h
# Lookup of reported TGI keyed by entry

[
  {
    "compound": "COc1cc2c(cc1OCCCCCn1c(-c3ccc(OCc4ccccc4)cc3)nc3cc(N4CCOCC4)ccc31)N=C[C@@H]1CCCN1C2=O",
    "endpoint-name": "TGI",
    "result": "11.3 µM"
  }
]

Q: I am curious: what TGI value has been reported for CN(C)/C=C1\CCc2ccc([N+](=O)[O-])cc2C1=O ?
Result: > 100 µM

Q: I am curious: what TGI value has been reported for O=C1Nc2cc(Cl)ccc2C(=O)N2CCC[C@@H]12 ?
Result: > 100 µM

Q: I am curious: what TGI value has been reported for C=Cc1nc2nnc(CCCCCCCCc3nnc4nc(C=C)[nH]n34)n2[nH]1 ?
Result: > 100 µM

Q: I am curious: what TGI value has been reported for COC(=O)CN(CC1O[C@@H]2OC(C)(C)O[C@@H]2C1N=[N+]=[N-])C(=O)OCc1ccccc1 (stereo not given in full) ?
Result: > 100 µM

----------
# System: HL-60(TB) leukemia
# method-summary: NCI tumour cell line growth inhibition, 48 h
Class rule met: TGI at least 10 µM. Class rule not met: TGI below 10 µM.

See these solved cases before continuing.
[
  {
    "compound": "CC[C@]12C=CCN3CC[C@@]4(c5cc(N=O)c(OC)cc5N(C)[C@H]4[C@@](O)(C(=O)NC(Cc4c[nH]c5ccccc45)C(=O)OC)[C@@H]1O)[C@@H]32 (stereo not given in full)",
    "label": "rule met"
  },
  {
    "compound": "Cc1ccc(O)c(C(c2ccc(C(c3cc(C)ccc3O)c3cc(C)ccc3O)cc2)c2cc(C)ccc2O)c1",
    "label": "rule not met"
  }
]

Q: Check this compound for TGI at or above 10 µM: CCC(CC)c1nc(Nc2cccc(OC)c2)c2ccccc2n1
Result: rule met

----------
# Tested on: HT29 colon
# method-summary: NCI tumour cell line growth inhibition, 48 h; in the data active = GI50 below about 0.43 µM; inactive = the rest
Please state which outcome applies, choosing from class 1 (active), class 0 (inactive)

See these solved cases before continuing.
[
  {
    "molecule": "COc1ccc(/C=C/C(=O)c2cc3c(N)c(C(=O)Nc4cccc(Cl)c4C)sc3nc2C)cc1",
    "label": "class 1"
  },
  {
    "molecule": "C=C1C(=O)O[C@H]2[C@H]1CC/C(COC(=O)/C=C/C(=O)NCc1ccc(Cn3c(=O)sn(-c4ccccc4)c3=O)cc1)=C\\CC[C@@]1(C)O[C@@H]21",
    "label": "class 0"
  },
  {
    "molecule": "Clc1ccc(OCc2nn3c(CCCCc4nnc5sc(COc6ccc(Cl)cc6Cl)nn45)nnc3s2)c(Cl)c1",
    "label": "class 0"
  },
  {
    "molecule": "COC1/C=C\\C=C(/C)C(=O)NC2=CC(=O)C(N)=C(CC(C)CC(OC)C(O)C(C)C=C(C)C1OC(N)=O)C2=O (stereo not drawn)",
    "label": "class 1"
  },
  {
    "molecule": "[N-]=[N+]=NCCCn1c2c(c3cc4c(cc3c1=O)OCO4)C(=O)c1ccccc1-2",
    "label": "class 0"
  },
  {
    "molecule": "CS(=O)(=O)O[C@H]1C(=O)N(c2cc3c4ccccc4ccc3c3ccccc23)[C@@H]1c1ccccc1",
    "label": "class 0"
  },
  {
    "molecule": "C#CCn1cnc2cnc(Nc3cccc(NC(=O)CCl)c3)nc21",
    "label": "class 0"
  },
  {
    "molecule": "COc1cc2c(cc1I)-c1c(cc(OC)c(OC)c1OC)CC[C@@H]2NC(C)=O",
    "label": "class 1"
  },
  {
    "molecule": "CCCCCCCCCCS(=O)CC(CO)NC(=O)/C=C/c1c(C)[nH]c(=O)[nH]c1=O (stereo not drawn)",
    "label": "class 0"
  },
  {
    "molecule": "COC(=O)[C@@H](C)C[C@H](Cc1ccc2ccccc2c1)NC(=O)c1csc([C@@H](C[C@H](C(C)C)N(C)C(=O)[C@@H](NC(=O)[C@H]2CCCCN2C)C(C)C)OC(C)=O)n1",
    "label": "class 1"
  }
]

Q: Write down the call the test reported for this molecule. Item: CCN(CC)Cc1cc(Nc2c3ccc(Cl)cc3nc3ccc(OC)cc23)ccc1O
Result: class 0

Q: Write down the call the test reported for this molecule. Item: Nc1nonc1C(=Nc1ccc(F)c(Cl)c1)NO
Result: class 0

Q: Write down the call the test reported for this molecule. Item: O=C(/C=C/c1ccc(Cl)cc1)c1ccc(Nc2nc(Nc3ccc(F)cc3)nc(Nc3ccc(F)cc3)n2)cc1
Result: class 0

// provenance: PubChem BioAssay (NCI)
